Measured values drawn from patent US9073955B2 for this set.

test: Rat pharmacokinetic (PK) study, oral suspension; format: in vivo, male rats (Sprague Dawley); details: rat, plasma; parent thiazole compound of the example; male Sprague Dawley rats, oral suspension; read-out: AUC0-24
Entries and their measured AUC(0-t) follow.

{"columns": ["Compound", "AUC(0-t)"],
 "data": [
  ["Cn1c(=O)c2c(CC(=O)Nc3nc(-c4ccc(F)c(C(F)(F)F)c4F)cs3)csc2n(C)c1=O [parent of Example 10, reference compound]", "< 4000 ng·h/mL"],
  ["Cn1nc2c(c1CC(=O)Nc1nc(-c3ccc(F)c(C(F)(F)F)c3F)cs1)c(=O)n(C)c(=O)n2C [parent of Example 28, reference compound]", "< 7000 ng·h/mL"],
  ["Cc1oc2c(c1CC(=O)Nc1nc(-c3ccc(OC(F)(F)F)c(Cl)c3)cs1)c(=O)n(C)c(=O)n2C [parent of Example 25, reference compound]", "< 3000 ng·h/mL"],
  ["Cn1c(=O)c2c(CC(=O)Nc3nc(-c4ccc(C(F)(F)F)c(F)c4F)cs3)nsc2n(C)c1=O [parent of Example 31, reference compound]", "< 2500 ng·h/mL"]
]}

---

biological target: Human TRPA1 (Homo sapiens, UniProt O75762); construct: expressed in transfected cells; host or cells: CHO cells (grown with 400 μg/ml G-418); assay: 45Calcium uptake assay: inhibition of AITC induced cellular uptake of radioactive calcium; type: cell-based; settings: 10.0 μM; human TRPA1 expressing CHO cells, AITC 30 μM; read-out: Percentage inhibition at 10.0 μM
Sequence (O75762 whole entry): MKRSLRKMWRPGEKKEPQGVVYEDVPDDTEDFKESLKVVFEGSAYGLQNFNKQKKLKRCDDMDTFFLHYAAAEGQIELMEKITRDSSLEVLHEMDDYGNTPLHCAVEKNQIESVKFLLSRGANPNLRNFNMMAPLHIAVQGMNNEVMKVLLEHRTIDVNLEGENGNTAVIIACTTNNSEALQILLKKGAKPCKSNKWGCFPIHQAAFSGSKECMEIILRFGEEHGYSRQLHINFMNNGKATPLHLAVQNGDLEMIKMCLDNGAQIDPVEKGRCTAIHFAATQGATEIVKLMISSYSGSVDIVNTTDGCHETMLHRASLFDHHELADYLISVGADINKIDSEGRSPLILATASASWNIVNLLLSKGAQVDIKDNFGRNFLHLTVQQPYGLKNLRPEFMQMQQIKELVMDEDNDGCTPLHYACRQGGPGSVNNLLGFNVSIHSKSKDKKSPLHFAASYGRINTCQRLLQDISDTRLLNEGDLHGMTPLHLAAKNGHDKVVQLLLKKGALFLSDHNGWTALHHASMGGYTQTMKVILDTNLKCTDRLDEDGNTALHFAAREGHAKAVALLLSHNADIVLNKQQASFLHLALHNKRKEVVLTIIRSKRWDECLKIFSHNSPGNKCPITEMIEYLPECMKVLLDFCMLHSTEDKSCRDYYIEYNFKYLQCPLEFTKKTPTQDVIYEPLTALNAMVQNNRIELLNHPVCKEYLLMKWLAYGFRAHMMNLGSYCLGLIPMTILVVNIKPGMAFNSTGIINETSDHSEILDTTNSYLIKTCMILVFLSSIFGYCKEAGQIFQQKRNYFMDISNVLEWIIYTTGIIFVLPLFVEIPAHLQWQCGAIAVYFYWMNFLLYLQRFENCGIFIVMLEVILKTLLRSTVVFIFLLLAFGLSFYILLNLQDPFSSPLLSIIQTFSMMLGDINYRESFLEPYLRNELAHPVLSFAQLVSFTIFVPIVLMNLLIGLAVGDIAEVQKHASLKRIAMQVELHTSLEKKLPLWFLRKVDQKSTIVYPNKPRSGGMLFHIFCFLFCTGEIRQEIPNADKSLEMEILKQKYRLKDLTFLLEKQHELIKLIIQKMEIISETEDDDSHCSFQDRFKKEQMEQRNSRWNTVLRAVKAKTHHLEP
Counter-ions that a name gives are not always drawn.
Entries and their measured inhibition at 10 µM follow.
Measurement label: inhibition at 10 µM (%)

{"columns": ["Compound", "Assay value"],
 "data": [
  ["Cn1c(=O)c2c(CC(=O)/N=c3\\scc(-c4ccc(C(F)(F)F)c(F)c4F)n3COP(=O)(O)O)nsc2n(C)c1=O", 99.2],
  ["Cn1c(=O)c2c(CC(=O)/N=c3\\scc(-c4ccc(C(F)(F)F)c(F)c4)n3COC(=O)C3CCNCC3)csc2n(C)c1=O [Example 9, hydrochloride]", 94.8],
  ["Cn1c(=O)c2c(CC(=O)/N=c3\\scc(-c4ccc(F)c(C(F)(F)F)c4F)n3COC(=O)[C@@H]3CCCN3)csc2n(C)c1=O [Example 8, hydrochloride]", 98.3],
  ["Cl.Cn1c(=O)c2c(CC(=O)/N=c3\\scc(-c4ccc(F)c(C(F)(F)F)c4F)n3COC(=O)CN)csc2n(C)c1=O [Example 3, hydrochloride]", 99.9],
  ["CC[C@H](C)[C@H](N)C(=O)OCn1c(-c2ccc(C(F)(F)F)c(F)c2)cs/c1=N\\C(=O)Cc1csc2c1c(=O)n(C)c(=O)n2C.Cl [Example 6, hydrochloride]", 98.6],
  ["CC(C)C(=O)OCn1c(-c2ccc(F)c(C(F)(F)F)c2F)cs/c1=N\\C(=O)Cc1csc2c1c(=O)n(C)c(=O)n2C", 70.2]
]}

---

assay: Determination of solubility by shake flask method (water); type: physicochemical; settings: thermodynamic from solid; parent thiazole compound of the example; water, 37° C., shake flask
Entries and their measured solubility at 15 min follow.
Measurement label: solubility at 15 min

{"columns": ["Compound", "Measurement label", "Assay value"],
 "data": [
  ["Cn1c(=O)c2c(CC(=O)Nc3nc(-c4ccc(F)c(C(F)(F)F)c4F)cs3)csc2n(C)c1=O [parent of Example 10, reference compound]", "solubility at 15 min", "< 0.2 µg/mL"],
  ["Cc1oc2c(c1CC(=O)Nc1nc(-c3ccc(OC(F)(F)F)c(Cl)c3)cs1)c(=O)n(C)c(=O)n2C [parent of Example 25, reference compound]", "solubility at 15 min", "< 1.1 µg/mL"],
  ["Cn1nc2c(c1CC(=O)Nc1nc(-c3ccc(F)c(C(F)(F)F)c3F)cs1)c(=O)n(C)c(=O)n2C [parent of Example 28, reference compound]", "solubility at 15 min", "< 0.1 µg/mL"]
]}
